Cited source for all entries: ChEMBL document CHEMBL5665443

Test system: Adenine DNA glycosylase (Homo sapiens) (UniProt Q9UIF7);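 also: human MUTYH activity read as 594 nm fluorescence from cleavage and release of a quenched DNA duplex, coupled with APE1 for strand incision, lower signal meaning inhibition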
Sequence (Q9UIF7 whole entry): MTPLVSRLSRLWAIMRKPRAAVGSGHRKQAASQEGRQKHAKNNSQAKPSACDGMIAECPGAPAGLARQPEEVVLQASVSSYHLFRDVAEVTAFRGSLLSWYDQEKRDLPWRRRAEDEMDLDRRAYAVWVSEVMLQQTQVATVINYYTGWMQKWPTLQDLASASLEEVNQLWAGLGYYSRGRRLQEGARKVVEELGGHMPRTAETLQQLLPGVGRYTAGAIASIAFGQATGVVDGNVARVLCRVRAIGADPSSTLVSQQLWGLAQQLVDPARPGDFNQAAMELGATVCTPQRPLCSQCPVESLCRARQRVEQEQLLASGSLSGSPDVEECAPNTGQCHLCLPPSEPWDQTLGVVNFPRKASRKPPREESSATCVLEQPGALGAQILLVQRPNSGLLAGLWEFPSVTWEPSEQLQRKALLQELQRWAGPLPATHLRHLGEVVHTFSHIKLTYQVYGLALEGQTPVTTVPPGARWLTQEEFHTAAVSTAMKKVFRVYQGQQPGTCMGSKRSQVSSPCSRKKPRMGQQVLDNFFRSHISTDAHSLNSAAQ
Reported conditions: Compound Concentration 10.0 uM, Hit No
Description: Inhibition of MUTYH by quantifying inhibition of MUTYH-mediated cleavage and dissociation of quenched duplex DNA oligonucleotides, measured as fluorescence at 594 nm. To generate a functional strand incision and increase turn-over this assay is coupled to APE1.
Result type: inhibition (%)
Give the value, in units of %, as a plain number.

Example cases with answers are listed next.
1. CC[C@H](CO)Nc1nc(NCc2ccccc2)c2ncn(C(C)C)c2n1 | -2.91
2. COc1cccc(-c2c(C)n(Cc3c(F)cccc3C(F)(F)F)c(=O)n(C[C@H](NCCCC(=O)O)c3ccccc3)c2=O)c1F | 1.3

Give the measured inhibition of `COc1ccc2[nH]c(I)c(CCNC(C)=O)c2c1` .
10.2

Give the measured inhibition of `CC1(C)[C@H]2C[C@H](C/C=C\CCCC(=O)O)[C@@H](NC(=O)c3csc4ccc(O)cc34)[C@@H]1C2` .
14.6

Give the measured inhibition of `CN(C)c1ccnc2sc3c(=O)n(N4CCCCCC4)cnc3c12` .
6.93

Give the measured inhibition of `Fc1cccc(/C=N/N=C/c2cccc(F)c2)c1` .
1.53

Give the measured inhibition of `CC(C)C[C@H](NC(=O)[C@H](CC(N)=O)NC(=O)[C@@H]1CCCN1C(=O)[C@@H](N)C(C)C)C(=O)N1CCC[C@H]1C(=O)N[C@@H](CCC(N)=O)C(=O)N[C@@H](CCCNC(=N)N)C(=O)N[C@@H](Cc1ccccc1)C(N)=O` .
-3.17

Give the measured inhibition of `CCCCC#Cc1nc(NC)c2ncn([C@@H]3O[C@H](CO)[C@@H](O)[C@H]3O)c2n1` .
-0.235

----------
Test system: Endonuclease 8-like 2 (Homo sapiens) (UniProt Q969S2);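 also: fluorescence at 594 nm reports NEIL2 cutting and release of a quenched double-stranded DNA oligo substrate, reduced signal read as inhibition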
Sequence (whole entry): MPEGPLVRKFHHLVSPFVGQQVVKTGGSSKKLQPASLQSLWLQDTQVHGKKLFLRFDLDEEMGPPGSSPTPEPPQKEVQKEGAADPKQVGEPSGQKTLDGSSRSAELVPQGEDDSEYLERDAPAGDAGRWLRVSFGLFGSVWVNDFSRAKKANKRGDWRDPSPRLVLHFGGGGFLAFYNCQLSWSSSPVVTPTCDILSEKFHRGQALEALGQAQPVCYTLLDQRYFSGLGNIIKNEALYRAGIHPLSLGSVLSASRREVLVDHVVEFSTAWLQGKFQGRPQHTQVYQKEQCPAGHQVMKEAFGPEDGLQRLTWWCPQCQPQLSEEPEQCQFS
Reported conditions: Compound Concentration 10.0 uM, Hit No
Description: Inhibition of NEIL2 by quantifying inhibition of NEIL2-mediated cleavage and dissociation of quenched duplex DNA oligonucleotides, measured as fluorescence at 594 nm.
Result type: inhibition (%)
Give the value, in units of %, as a plain number.

Example cases with answers are listed next.
1) COc1ccc(CNC(=O)c2cc(-c3cncc(Cl)c3)cnc2-c2ccccn2)nc1OC | 6.5
2) Cn1nc(C(=O)NCc2ccc(C(=O)O)cc2)cc1-c1ccc2[nH]ccc2c1 | -4.83
3) O=C(Cc1ccc(Cl)c(Cl)c1)N1CCCC[C@H]1CN1CCCC1 | -2.48
4) Cn1c(-c2csc(C3CCN(CC4=NC5N=CC=CC5N4)CC3)n2)nc2ccccc21 (centres undefined) | -5.34
5) C=C1/C(=C\C=C2/CCC[C@]3(C)[C@@H]([C@H](C)/C=C/C=C/C(O)(CC)CC)CC[C@@H]23)C[C@@H](O)C[C@@H]1O | 15.3

Give the measured inhibition of `O=C(O)Cc1cccc(OCCCN(Cc2cccc(C(F)(F)F)c2Cl)CC(c2ccccc2)c2ccccc2)c1` .
5.89

Give the measured inhibition of `CC(C)c1cc(-c2ccc(F)c3ccccc23)nc(N)n1` .
7.25

Give the measured inhibition of `Cc1nn(C)c(C)c1-c1cccc2c1CC[C@H](N(C)C)C2` .
-0.234

Give the measured inhibition of `O=c1ccc2ccc(OCCCCN3CCN(c4cccc5sccc45)CC3)cc2[nH]1` .
-1.98
